- TESTED_SYSTEM: T1, cynomolgus monkey GPRC5D (cynomolgus monkey)
- T1 construct: whole, on cells; HEK293T-cynoGPRC5D cells; also called cynoGPRC5D
- TEST_DESCRIPTION: FACS, HEK293T-cynoGPRC5D cells
- Procedure: The subcloning plates were screened by Mirrorball assay and the subclones with good binding ability were expanded to 24-wells for confirmation tests. The specificity and cross-reactivity of these subclones were confirmed with FACS analysis. […] Median fluorescence intensity (MFI) was measured by FACS analysis, […]
PROPERTY_MEASURED: % Positive (%)
Hi! Could you send only the number? It should be in %, unit omitted.

Recorded results for 3 binders are shown here.
{"BINDER": "101B3G3 (antibody, V domains shown, Mouse monoclonal antibody from hybridoma subclone) VH: EVQLQQSGPELVKPGASMKISCKASGYSFTGYTMNWVKQSHGKNLEWIGLINPYNGGTRYNQKFKDKATLTVDKSSSTAYMELLSLTSEDSAVYYCARWLLRYAMDYWGQGTSVTVSS VL: DIVMTQSQKFMSTSVGDRVSITCKASQNVGNAVAWYQQKPGHSPKLLISSASNRKNGVPDRFTGSGSGTDFTLTVSNMQSEDLADYFCQQYSDSSWTFGGGTKLEIK", "% Positive (%)": 57.4}
{"BINDER": "83A9B8 (antibody, V domains shown, Mouse monoclonal antibody from hybridoma subclone) VH: EVQLQQSGPELVKPGASVKMSCKASGYTFSNYVIHWVKQKPGQGLEWIGYFNPYNDGSKYNEKFKGKATLTSDKSSSTAYMELSSLTSEDSAVYYCARGGVRRYFDVWGAGTTVTVSS VL: DIQMTQSPSSLSASLGERVSLTCRASQDIGDNLNWLQQEPDGTIKRLIYATFSLDSGVPKRFSGSRSGSVYSLTISRLESEDFVDYFCLHYASFPYTFGGGTKLEIK", "% Positive (%)": 55.7}
{"BINDER": "98A3A8 (antibody, V domains shown, Mouse monoclonal antibody from hybridoma subclone) VH: EVQLQQSGPELVKPGASVKMSCKASGYTFTYYVTHWVRQKPGQGLEWIGYINPYNDGTMFNEKFKGKATLTSDKSSSTAYMEFSSLTSEDSAVFYCARGGVRRYFDVWGAGTTVTVSS VL: DIQMTQSPSSLSASLGERVSLTCRASQDIGSNLNWLQQKPDGTIKRLIYATSSLDSGVPKRFSGSRSGSDYSLTINSLESEDFVDYYCLQYASFPYTFGGGTKLEIK", "% Positive (%)": 95.3}

So for 116F1G6 (antibody, V domains shown, Mouse monoclonal antibody from hybridoma subclone) VH: EVQLQHSGPELVKPGASVKMSCKASGYTFTTYVMHWVKQKPGQGLEWIGYINPYNDGTKYNEKFKGKATLTSDKSSSTAYMELSSLTSEDSAVYYCARGGVRRYFDVWGAGTTVTVSS VL: DIQMTQSPSSLSASLGERVSLTCRASQDIGSNLNWLQQEPNGTIKRLIYATFTLDSGVPKRFSGSRSGSDYSLTISSLESEDFVDYYCLQYASFPYTFGGGTKLEIK , the logged % Positive turned out to be 41.4

# % Positive (binder: 116G1G4 (antibody, V domains shown, Mouse monoclonal antibody from hybridoma subclone) VH: EVQLQQSGPELVKPGASVKMSCKASGYTFTYYIMHWVKQEPGQGLQWIGYINPYNDGAYYSARFKGKATLTSDKSSSTAYMDLTSLTSEDSAVYYCARGGVRRYFDVWGAGTTVTVSS VL: DIQMTQSPSSLSASLGERVILTCRASQDIGSNLIWLQQKPDGTIKRLIYATFNLDSGVSKRFSGSRSGSDYSLTISSLDSEDFVDYYCLQYASSPYTFGGGTKLEIK ) is 59.8
